Target: MAGI2_3, Q86UL8
Sequence (Q86UL8 600-682): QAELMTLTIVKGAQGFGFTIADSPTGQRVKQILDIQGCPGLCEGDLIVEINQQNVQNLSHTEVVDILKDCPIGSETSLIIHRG
Experiment: holdup assay
Parameters: key: below the threshold = too weak to quantify, mostly under pKd 3.1 to 4
Settings: plain residues with an end cap or a label only (N-terminal biotin on a linker: ado-ado)
Recorded endpoint: pKd

Known pKd results, listed for orientation:
Binder	pKd
KRPEMTSSSV [MUC3B, MUC3A, Q02505;Q9H195]	below the threshold
TGLWKHETTV [ADGRA3, Q8IWK6]	4.02
DDASLPVSDV [PLEKHA1, Q9HB21]	below the threshold
STKRKLASAV [NCF1, P14598]	below the threshold
EDGESWEYQI [TRPV6, Q9H1D0]	below the threshold

For the binder EDPRVEVTQF [SLC22A9, Q8IVM8] , give its measured pKd value.
below the threshold

Give pKd for the following binder: PTPDLPQTRV [KLHDC7A, Q5VTJ3]
3.77

Using known records, supply pKd for ARSAAASNYV [CLDN4, O14493]
below the threshold

Given the binder NISYRRESAI [KCNJ4, P48050] , write its reported pKd.
below the threshold

Give the reported value of pKd for this record: ELSATVTTDC [TRIP6, Q15654]
3.56

Reference source for all entries: paper PMC9482650
